# measurement-context: in ethyl acetate, 323.15 K
measurement-kind: solubility (mole fraction)
Hey, just send me the number, nothing else.

The value of solubility (mole fraction) measured for the compound Cl.N/N=C(\N)NN turned out to be 0.000281

* * *

# measurement-context: in THF, 293.15 K
measurement-kind: solubility (mole fraction)
Hey, just send me the number, nothing else.

The value of solubility (mole fraction) measured for the compound Cl.N/N=C(\N)NN turned out to be 6.85e-05

* * *

# measurement-context: in n-hexane, 288.15 K
measurement-kind: solubility (mole fraction)

The value of solubility (mole fraction) measured for the compound Cl.N/N=C(\N)NN turned out to be 4.69e-05

* * *

# measurement-context: in methanol, 293.15 K
measurement-kind: solubility (mole fraction)
Hey, just send me the number, nothing else.

The value of solubility (mole fraction) measured for the molecule Cl.N/N=C(\N)NN turned out to be 0.00522

* * *

# measurement-context: in n-heptane, 298.15 K
measurement-kind: solubility (mole fraction)
Hey, just send me the number, nothing else.

The value of solubility (mole fraction) measured for the molecule Cl.N/N=C(\N)NN turned out to be 8.63e-05

* * *

# measurement-context: in acetonitrile, 283.15 K
measurement-kind: solubility (mole fraction)
Hey, just send me the number, nothing else.

The value of solubility (mole fraction) measured for the compound Cl.N/N=C(\N)NN turned out to be 1.4e-05

* * *

# measurement-context: in n-propanol, 298.15 K
measurement-kind: solubility (mole fraction)
Hey, just send me the number, nothing else.

The value of solubility (mole fraction) measured for the molecule Cl.N/N=C(\N)NN turned out to be 0.000189

* * *

# measurement-context: in n-propanol, 308.15 K
measurement-kind: solubility (mole fraction)

The value of solubility (mole fraction) measured for the compound Cl.N/N=C(\N)NN turned out to be 0.000319

* * *

# measurement-context: in n-hexane, 323.15 K
measurement-kind: solubility (mole fraction)
Hey, just send me the number, nothing else.

The value of solubility (mole fraction) measured for the compound Cl.N/N=C(\N)NN turned out to be 0.00035

* * *

# measurement-context: in isopropanol, 288.15 K
measurement-kind: solubility (mole fraction)
Hey, just send me the number, nothing else.

The value of solubility (mole fraction) measured for the compound Cl.N/N=C(\N)NN turned out to be 6.35e-05

* * *

# measurement-context: in n-hexane, 273.15 K
measurement-kind: solubility (mole fraction)
Hey, just send me the number, nothing else.

The value of solubility (mole fraction) measured for the compound Cl.N/N=C(\N)NN turned out to be 1.77e-05

* * *

# measurement-context: in n-propanol, 313.15 K
measurement-kind: solubility (mole fraction)
Hey, just send me the number, nothing else.

The value of solubility (mole fraction) measured for the compound Cl.N/N=C(\N)NN turned out to be 0.000412

* * *

# measurement-context: in water, 273.15 K
measurement-kind: solubility (mole fraction)
Hey, just send me the number, nothing else.

The value of solubility (mole fraction) measured for the compound Cl.N/N=C(\N)NN turned out to be 0.0395

* * *

# measurement-context: in isopropanol, 273.15 K
measurement-kind: solubility (mole fraction)
Hey, just send me the number, nothing else.

The value of solubility (mole fraction) measured for the compound Cl.N/N=C(\N)NN turned out to be 2.41e-05

* * *

# measurement-context: in n-hexane, 278.15 K
measurement-kind: solubility (mole fraction)
Hey, just send me the number, nothing else.

The value of solubility (mole fraction) measured for the molecule Cl.N/N=C(\N)NN turned out to be 2.5e-05

* * *

# measurement-context: in n-hexane, 313.15 K
measurement-kind: solubility (mole fraction)
Hey, just send me the number, nothing else.

The value of solubility (mole fraction) measured for the compound Cl.N/N=C(\N)NN turned out to be 0.000205

* * *

# measurement-context: in isobutanol, 298.15 K
measurement-kind: solubility (mole fraction)
Hey, just send me the number, nothing else.

The value of solubility (mole fraction) measured for the molecule Cl.N/N=C(\N)NN turned out to be 0.000105

* * *

# measurement-context: in ethyl acetate, 278.15 K
measurement-kind: solubility (mole fraction)
Hey, just send me the number, nothing else.

The value of solubility (mole fraction) measured for the compound Cl.N/N=C(\N)NN turned out to be 2.2e-05

* * *

# measurement-context: in THF, 303.15 K
measurement-kind: solubility (mole fraction)
Hey, just send me the number, nothing else.

The value of solubility (mole fraction) measured for the molecule Cl.N/N=C(\N)NN turned out to be 0.000119

* * *

# measurement-context: in n-hexane, 283.15 K
measurement-kind: solubility (mole fraction)
Hey, just send me the number, nothing else.

The value of solubility (mole fraction) measured for the compound Cl.N/N=C(\N)NN turned out to be 3.47e-05

* * *

# measurement-context: in water, 323.15 K
measurement-kind: solubility (mole fraction)

The value of solubility (mole fraction) measured for the molecule Cl.N/N=C(\N)NN turned out to be 0.161

* * *

# measurement-context: in water, 318.15 K
measurement-kind: solubility (mole fraction)
Hey, just send me the number, nothing else.

The value of solubility (mole fraction) measured for the compound Cl.N/N=C(\N)NN turned out to be 0.145

* * *

# measurement-context: in acetonitrile, 323.15 K
measurement-kind: solubility (mole fraction)
Hey, just send me the number, nothing else.

The value of solubility (mole fraction) measured for the compound Cl.N/N=C(\N)NN turned out to be 0.000142

* * *

# measurement-context: in ethyl acetate, 308.15 K
measurement-kind: solubility (mole fraction)
Hey, just send me the number, nothing else.

The value of solubility (mole fraction) measured for the compound Cl.N/N=C(\N)NN turned out to be 0.00013

* * *

# measurement-context: in n-heptane, 313.15 K
measurement-kind: solubility (mole fraction)

The value of solubility (mole fraction) measured for the compound Cl.N/N=C(\N)NN turned out to be 0.000204

* * *

# measurement-context: in n-butanol, 313.15 K
measurement-kind: solubility (mole fraction)

The value of solubility (mole fraction) measured for the compound Cl.N/N=C(\N)NN turned out to be 0.000345

* * *

# measurement-context: in isopropanol, 308.15 K
measurement-kind: solubility (mole fraction)
Hey, just send me the number, nothing else.

The value of solubility (mole fraction) measured for the molecule Cl.N/N=C(\N)NN turned out to be 0.000192

* * *

# measurement-context: in water, 313.15 K
measurement-kind: solubility (mole fraction)
Hey, just send me the number, nothing else.

The value of solubility (mole fraction) measured for the compound Cl.N/N=C(\N)NN turned out to be 0.127

* * *

# measurement-context: in THF, 288.15 K
measurement-kind: solubility (mole fraction)

The value of solubility (mole fraction) measured for the compound Cl.N/N=C(\N)NN turned out to be 5.17e-05

* * *

# measurement-context: in n-heptane, 308.15 K
measurement-kind: solubility (mole fraction)
Hey, just send me the number, nothing else.

The value of solubility (mole fraction) measured for the molecule Cl.N/N=C(\N)NN turned out to be 0.000153

* * *

# measurement-context: in acetonitrile, 293.15 K
measurement-kind: solubility (mole fraction)

The value of solubility (mole fraction) measured for the molecule Cl.N/N=C(\N)NN turned out to be 2.72e-05

* * *

# measurement-context: in ethanol, 273.15 K
measurement-kind: solubility (mole fraction)

The value of solubility (mole fraction) measured for the compound Cl.N/N=C(\N)NN turned out to be 0.000112

* * *

# measurement-context: in ethanol, 283.15 K
measurement-kind: solubility (mole fraction)

The value of solubility (mole fraction) measured for the molecule Cl.N/N=C(\N)NN turned out to be 0.000207

* * *

# measurement-context: in n-propanol, 283.15 K
measurement-kind: solubility (mole fraction)
Hey, just send me the number, nothing else.

The value of solubility (mole fraction) measured for the compound Cl.N/N=C(\N)NN turned out to be 7.94e-05

* * *

# measurement-context: in water, 298.15 K
measurement-kind: solubility (mole fraction)
Hey, just send me the number, nothing else.

The value of solubility (mole fraction) measured for the compound Cl.N/N=C(\N)NN turned out to be 0.0879

* * *

# measurement-context: in n-propanol, 273.15 K
measurement-kind: solubility (mole fraction)

The value of solubility (mole fraction) measured for the molecule Cl.N/N=C(\N)NN turned out to be 4.25e-05

* * *

# measurement-context: in isopropanol, 313.15 K
measurement-kind: solubility (mole fraction)
Hey, just send me the number, nothing else.

The value of solubility (mole fraction) measured for the compound Cl.N/N=C(\N)NN turned out to be 0.000248

* * *

# measurement-context: in isobutanol, 293.15 K
measurement-kind: solubility (mole fraction)
Hey, just send me the number, nothing else.

The value of solubility (mole fraction) measured for the compound Cl.N/N=C(\N)NN turned out to be 7.77e-05

* * *

# measurement-context: in ethanol, 303.15 K
measurement-kind: solubility (mole fraction)

The value of solubility (mole fraction) measured for the molecule Cl.N/N=C(\N)NN turned out to be 0.000666
